# Emax per record follows
target: glutathione-S-transferase (GST) tagged LXRalpha LBD (ligand binding domain) (Homo sapiens, UniProt Q13133); construct: purchased Invitrogen pv4655; assay: LanthaScreen TR-FRET Liver X Receptor Coactivator Assay, LXR alpha; type: biochemical; settings: read-out: LXR alpha actiivty at max dose (%)
Sequence (Q13133 209-447 limits assumed): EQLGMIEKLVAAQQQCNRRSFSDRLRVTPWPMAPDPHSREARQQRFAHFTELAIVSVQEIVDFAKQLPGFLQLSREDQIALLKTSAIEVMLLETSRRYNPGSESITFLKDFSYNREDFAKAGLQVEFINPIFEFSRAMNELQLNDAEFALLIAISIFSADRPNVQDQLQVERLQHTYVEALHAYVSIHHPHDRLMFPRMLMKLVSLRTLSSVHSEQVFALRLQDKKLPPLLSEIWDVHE

COMPOUND	Emax
CN(C)C(=O)c1ccc([S+]([O-])C2CCC3(CC2)CCN(C(=O)C(O)(c2cc(Cl)cc(Cl)c2)C(F)(F)F)CC3)cc1Cl (single isomer, unassigned) [Example 20-1]	0%
COc1cccc([C@@](O)(C(=O)N2CCC3(CC2)CC(CCCc2ccc(C(=O)N(C)C)c(Cl)c2)C3)C(F)(F)F)c1 (single isomer, unassigned) [Example 16-1]	19%
CN(C)C(=O)c1ccc(CCCC2CCN(C(=O)C(O)(c3ccccc3)C(F)(F)F)CC2)cc1Cl (single isomer, unassigned) [Example 15-1]	19%
CN(C)C(=O)c1ccc(NCCCCC2CCN(C(=O)C(O)(c3ccccc3)C(F)(F)F)CC2)nc1Cl (stereo not shown) [Example 2-1]	25%
COc1cccc([C@@](O)(C(=O)N2CCC(CC3CC(Nc4ccc(C(=O)N(C)C)c(Cl)c4)C3)CC2)C(F)(F)F)c1 (single isomer, unassigned) [Example 11-1]	12%
CN(C)C(=O)c1ccc(N(C)CCC2CC3(CCN(C(=O)C(C)(C)c4ccccc4)CC3)C2)nc1Cl [Example 12-1]	5%
CN(C)C(=O)c1ccc(S(=O)(=O)C2CCC3(CC2)CCN(C(=O)C(O)(c2cc(Cl)cc(Cl)c2)C(F)(F)F)CC3)cc1Cl (single isomer, unassigned) [Example 21-1]	0%

---

# Emax per record follows
molecular target: glutathione-S-transferase (GST) tagged LXRbeta LBD (ligand binding domain) (Homo sapiens, UniProt P55055); construct: purchased Invitrogen pv4658.pps; assay: LanthaScreen TR-FRET Liver X Receptor Coactivator Assay, LXR beta; assay type: biochemical; conditions: efficacy (Emax) in relation to reference dual agonist T0901317; read-out: LXR beta actiivty at max dose (%)

MOLECULE	ENDPOINT_UNIT	Emax
CN(C)C(=O)c1ccc(SC2CCC3(CC2)CCN(C(=O)C(O)(c2cc(Cl)cc(Cl)c2)C(F)(F)F)CC3)cc1Cl (single isomer, unassigned) [Example 19-2]	%	74
CNC(=O)c1ccc(NCCCCC2CCN(C(=O)C3(c4ccccc4)CCCC3)CC2)cc1Cl [Example 1-4]	%	42
CN(Cc1ccc(C(=O)N(C)C)c(Cl)c1)CC1CC12CCN(C(=O)C(C)(C)c1ccccc1)CC2 (stereo not shown) [Example 14-1]	%	99
CNC(=O)c1ccc(CCCCCC2CCN(C(=O)C(O)(c3cccc(OC)c3)C(F)(F)F)CC2)cc1Cl (single isomer, unassigned) [Example 15-6]	%	96
CN(C)C(=O)c1ccc(NCCC[C@H]2CC23CCN(C(=O)[C@](O)(c2ccccc2)C(F)(F)F)CC3)nc1Cl (single isomer, unassigned) [Example 6-3]	%	49
CN(C)C(=O)c1ccc(CCC[C@H]2CC23CCN(C(=O)[C@](O)(c2ccccc2)C(F)(F)F)CC3)cc1Cl (single isomer, unassigned) [Example 17-2]	%	128
CNC(=O)c1ccc(NCCCCC2CCN(C(=O)C(O)(c3ccccc3)C(F)(F)F)CC2)cc1Cl (single isomer, unassigned) [Example 1-3]	%	75

---

# Emax per record follows
biological target: glutathione-S-transferase (GST) tagged LXRalpha LBD (ligand binding domain) (Homo sapiens); construct: purchased Invitrogen pv4655; assay: LanthaScreen TR-FRET Liver X Receptor Coactivator Assay, LXR alpha; format: biochemical; conditions: efficacy (Emax) in relation to reference dual agonist T0901317; read-out: LXR alpha actiivty at max dose (%)

COMPOUND	EXPERIMENTAL_TARGET	ENDPOINT_UNIT	Emax
CCc1cccc(C(O)(C(=O)N2CCC(CCCCNc3ccc(C(=O)NC)c(Cl)c3)CC2)C(F)(F)F)c1 (single isomer, unassigned)	glutathione-S-transferase (GST) tagged LXRalpha LBD (ligand binding domain) (Homo sapiens)	%	12
CNC(=O)c1ccc(NCCCCC2CCN(C(=O)C(O)(c3cccc(Cl)c3)C(F)(F)F)CC2)cc1Cl (single isomer, unassigned)	glutathione-S-transferase (GST) tagged LXRalpha LBD (ligand binding domain) (Homo sapiens)	%	32
CN(C)C(=O)c1ccc(N(C)CCCC2CCN(C(=O)C(O)(c3ccccc3)C(F)(F)F)CC2)cc1Cl (single isomer, unassigned)	glutathione-S-transferase (GST) tagged LXRalpha LBD (ligand binding domain) (Homo sapiens)	%	16

---

target: glutathione-S-transferase (GST) tagged LXRalpha LBD (ligand binding domain) (Homo sapiens, UniProt Q13133); construct: purchased Invitrogen pv4655; assay: LanthaScreen TR-FRET Liver X Receptor Coactivator Assay, LXR alpha; format: biochemical; settings: efficacy (Emax) in relation to reference dual agonist T0901317; read-out: LXR alpha actiivty at max dose (%)
# Emax per record follows

MOLECULE	ENDPOINT_UNIT	Emax
CN(C)C(=O)c1ccc(S(=O)(=O)CCCCC2CCN(C(=O)C(C)(C)c3ccccc3)CC2)cc1Cl	%	2
COc1cccc(C(O)(C(=O)N2CCC3(CCC(Nc4ccc(C(=O)N(C)C)c(Cl)c4)CC3)CC2)C(F)(F)F)c1 (single isomer, unassigned)	%	12
CN(C)C(=O)c1ccc(NCCCCC2CCN(C(=O)C(O)(c3ccccc3)C(F)(F)F)CC2)cc1Cl (single isomer, unassigned)	%	43

---

Target: glutathione-S-transferase (GST) tagged LXRbeta LBD (ligand binding domain) (Homo sapiens)
Construct: purchased Invitrogen pv4658.pps
Sequence (P55055 222-460 limits assumed): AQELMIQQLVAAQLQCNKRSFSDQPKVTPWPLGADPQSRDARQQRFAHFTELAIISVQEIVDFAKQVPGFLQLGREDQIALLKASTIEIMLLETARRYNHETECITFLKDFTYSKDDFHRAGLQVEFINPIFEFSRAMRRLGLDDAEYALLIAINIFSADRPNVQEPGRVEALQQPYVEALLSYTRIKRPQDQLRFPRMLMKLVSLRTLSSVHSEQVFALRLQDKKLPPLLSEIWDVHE
Experiment: LanthaScreen TR-FRET Liver X Receptor Coactivator Assay, LXR beta
Type: biochemical
Conditions: LXR beta IP (nM), potency (Inflection Point) of compound-induced co-activator recruitment, TR-FRET
# EC50 per record follows
READOUT: EC50 (nM)

COMPOUND	READOUT	OBSERVED
COc1cccc(C(O)(C(=O)N2CCC3(CCC(Sc4ccc(C(=O)N(C)C)c(Cl)c4)CC3)CC2)C(F)(F)F)c1 (single isomer, unassigned) [Example 19-1]	EC50	58
COc1cccc([C@@](O)(C(=O)N2CCC3(CC2)CC(CCCc2ccc(C(=O)N(C)C)c(Cl)c2)C3)C(F)(F)F)c1 (single isomer, unassigned) [Example 16-1]	EC50	132
CC(CC1CC12CCN(C(=O)C1(c3ccccc3)CCC1)CC2)Nc1ccc(C(=O)N(C)C)c(Cl)c1 (single isomer, unassigned) [Example 5-1]	EC50	5
